Biological target: T1, human CD71 extracellular domain (human, UniProt P02786 89-760, biotinylated)
T1 construct: also called hCD71; CD71-ECD
T1 sequence (P02786 89-760): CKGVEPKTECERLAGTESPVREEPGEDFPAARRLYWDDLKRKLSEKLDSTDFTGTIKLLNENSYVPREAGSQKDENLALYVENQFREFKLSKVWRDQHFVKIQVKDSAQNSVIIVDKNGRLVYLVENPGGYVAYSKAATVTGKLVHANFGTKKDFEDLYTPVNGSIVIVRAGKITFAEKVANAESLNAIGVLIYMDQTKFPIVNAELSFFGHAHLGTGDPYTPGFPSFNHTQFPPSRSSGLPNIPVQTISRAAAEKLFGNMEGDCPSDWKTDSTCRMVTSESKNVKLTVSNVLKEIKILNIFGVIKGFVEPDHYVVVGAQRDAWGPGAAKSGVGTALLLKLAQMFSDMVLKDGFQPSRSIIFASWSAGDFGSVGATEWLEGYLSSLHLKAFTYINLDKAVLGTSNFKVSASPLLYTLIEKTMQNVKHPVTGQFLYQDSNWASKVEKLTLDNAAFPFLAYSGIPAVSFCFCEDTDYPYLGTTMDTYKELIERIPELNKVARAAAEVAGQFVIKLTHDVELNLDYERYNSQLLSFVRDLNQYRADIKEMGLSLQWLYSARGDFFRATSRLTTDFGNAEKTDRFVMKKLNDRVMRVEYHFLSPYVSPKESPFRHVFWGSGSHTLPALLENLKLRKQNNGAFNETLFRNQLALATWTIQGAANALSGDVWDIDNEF
Assay: primary ELISA, RLU over HSA
assay-metric: hCD71:HSA

Identify hCD71:HSA associated with the binder CD71-binding FN3 domain of SEQ ID NO: 469 (designed binder) MLPAPKNLVVSRVTEDSARLSWTAPDAAFDSFFIGYLEPQPPGEAIHLYVPGSERSYDLTGLKPGTEYNVTIQGVKGGFPSLPLVATFTT
73

Identify hCD71:HSA associated with the binder CD71-binding FN3 domain of SEQ ID NO: 450 (designed binder) MLPAPKNLVVSRVTEDSARLSWTAPDAAFDSFFIGYLEPQPPGEAISLFVPGSERSYDLTGLKPGTEYNVTIQGVKGGFPSEPLAAKFTT
166

Identify hCD71:HSA associated with the binder CD71-binding FN3 domain of SEQ ID NO: 543 (designed binder) MLPAPKNLVVSRVTEDSARLSWTAPDAAFDSFFIGYLEPQPPGEAISLYVPGSERSYDLTGLKPGTEYNVTIQGVKGGFPSIPLVAVFTT
207

Identify hCD71:HSA associated with the binder CD71-binding FN3 domain of SEQ ID NO: 458 (designed binder) MLPAPKNLVVSRVTEDSARLSWTAPDAAFDSFLDLLPSNWDIAGEAIVLTVPGSERSYDLTGLKPGTEYHVNILGVKGGKESLPLVANFTT
51

Identify hCD71:HSA associated with the binder CD71-binding FN3 domain of SEQ ID NO: 510 (designed binder) MLPAPKNLVVSRVTEDSARLSWTAPDAAFDSFFIAYGESPESGEAIVLTVPGSERSYDLTGLKPGTEYLVWIAGVKGGYYSDPLSAIFTT
263

Identify hCD71:HSA associated with the binder CD71-binding FN3 domain of SEQ ID NO: 500 (designed binder) MLPAPKNLVVSRVTEDSARLSWTAPDAAFDSFFIGYLEPQPPGEAIDLLVPGSERSYDLTGLKPGTEYNVTIQGVKGGFPSMPLSAIFTT
147

Identify hCD71:HSA associated with the binder CD71-binding FN3 domain of SEQ ID NO: 495 (designed binder) MLPAPKNLVVSRVTEDSARLSWTAPDAAFDSFFINYREDKWIGEAIVLTVPGSERSYDLTGLKPGTEYSVPIDGVKGGAASPPLSAIFTT
142

Identify hCD71:HSA associated with the binder CD71-binding FN3 domain of SEQ ID NO: 525 (designed binder) MLPAPKNLVVSRVTEDSARLSWTAPDAAFDSFFIGYLEPQPPGEAIALYVPGSERSYDLTGLKPGTEYNVTIQGVKGGFPSEPLVATFTT
49

Identify hCD71:HSA associated with the binder CD71-binding FN3 domain of SEQ ID NO: 502 (designed binder) MLPAPKNLVVSRVTEDSARLSWTAPDAAFDSFFIGYLEPQPPGEAIGLHVPGSERSYDLTGLKPGTEYNVTIQGVKGGFPSIPLEAKFTT
141

Identify hCD71:HSA associated with the binder CD71-binding FN3 domain of SEQ ID NO: 535 (designed binder) MLPAPKNLVVSRVTEDSARLSWTAPDAAFDSFFIGYLEPQPPGEAIHLQVPGSERSYDLTGLKPGTEYNVTIQGVKGGFPSDPLVAKFTT
362

Identify hCD71:HSA associated with the binder CD71-binding FN3 domain of SEQ ID NO: 486 (designed binder) MLPAPENLVVSRVTEDSARLSWTALDAAFDSFFIGYLEPQPPGEAISLLVPGSERSYDLTGLKPGTEYNVTIQGVKGGIASEPLSAAFTT
297

Identify hCD71:HSA associated with the binder CD71-binding FN3 domain of SEQ ID NO: 460 (designed binder) MLPAPKNLVVSRVTEDSARLSWTAPDAAFDSFFIGYLEPQPPGEAISLYVPGSERSYDQTGLKPGTEYNVTIQGVKGGFPSDPLSARFTT
143

Identify hCD71:HSA associated with the binder CD71-binding FN3 domain of SEQ ID NO: 541 (designed binder) MLPAPKNLVVSRVTEDSARLSWTAPDAAFDSFFIGYLEPQPPGEAIDLWVPGSERSYDLTGLKPGTEYNVTIQGVKGGFPSMPLDAYFTT
73

Identify hCD71:HSA associated with the binder CD71-binding FN3 domain of SEQ ID NO: 474 (designed binder) MLPAPKNLVVSRVTEDSARLSWTAPDAAFDSFFIGYLEPQPPGEAIGLAVPGSERSYDLTGLKPGTEYNVTIQGVKGGFPSEPLIADFTT
312

Identify hCD71:HSA associated with the binder CD71-binding FN3 domain of SEQ ID NO: 456 (designed binder) MLPAPKNLVVSRVTEDSARLSWTAPDAAFDSFFIGYLEPQPPGEAIALYVPGSERSYDLTGLKPGTEYNVTIQGVKGGFPSHPLQAHFTT
302

Identify hCD71:HSA associated with the binder CD71-binding FN3 domain of SEQ ID NO: 477 (designed binder) MLPAPKNLVVSRVTEDSARLSWTAPDAAFDSFEIAYFETCRTGEAIVLTVPGSERSYDLTGLKPGTEYGVSIYGVKGGAHSGPLSAIFTT
289

Identify hCD71:HSA associated with the binder CD71-binding FN3 domain of SEQ ID NO: 485 (designed binder) MLPAPKNLVVSRVTEDSARLSWTAPDAAFDSFFIGYLEPQPPGEAIHLWVPGSERSYDLTGLKPGTEYNVTIQGVKGGFPSLPLLAKFTT
66

Identify hCD71:HSA associated with the binder CD71-binding FN3 domain of SEQ ID NO: 523 (designed binder) MLPAPKNLVVSRVTEDSARLSWTAPDAAFDSFFIGYLEPQPPGEAIDLLVPGSERSYDLTGLKPGTEYNVTIQGVKGGFPSEPLTAEFTT
292
